- Assayed System: FGFR2 (Homo sapiens, UniProt P21802)
- Sequence (P21802 22-821): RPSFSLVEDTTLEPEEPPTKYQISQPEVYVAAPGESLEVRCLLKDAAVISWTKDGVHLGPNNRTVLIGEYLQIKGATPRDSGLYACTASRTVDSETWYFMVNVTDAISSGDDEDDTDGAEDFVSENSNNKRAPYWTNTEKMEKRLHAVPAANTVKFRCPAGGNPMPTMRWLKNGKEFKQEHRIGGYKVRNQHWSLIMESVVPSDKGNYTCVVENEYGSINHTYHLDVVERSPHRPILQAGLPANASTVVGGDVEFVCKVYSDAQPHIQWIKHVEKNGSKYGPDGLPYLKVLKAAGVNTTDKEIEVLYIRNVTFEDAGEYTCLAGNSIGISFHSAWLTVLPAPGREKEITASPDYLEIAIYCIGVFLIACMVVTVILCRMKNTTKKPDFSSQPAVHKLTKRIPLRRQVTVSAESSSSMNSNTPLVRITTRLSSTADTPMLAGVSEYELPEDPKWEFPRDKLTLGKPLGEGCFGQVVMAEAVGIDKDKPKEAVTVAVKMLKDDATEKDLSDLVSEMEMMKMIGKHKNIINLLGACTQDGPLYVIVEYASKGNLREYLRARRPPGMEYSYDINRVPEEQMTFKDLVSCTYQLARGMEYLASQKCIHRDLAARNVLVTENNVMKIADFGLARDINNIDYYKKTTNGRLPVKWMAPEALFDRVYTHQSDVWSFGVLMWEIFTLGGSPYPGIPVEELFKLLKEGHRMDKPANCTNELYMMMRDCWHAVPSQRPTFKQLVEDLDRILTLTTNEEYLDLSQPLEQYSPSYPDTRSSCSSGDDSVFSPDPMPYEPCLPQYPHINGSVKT
- Assay Notes: Z'-LYTE kinase assay
- Format: biochemical
- Assay Setup: read-out: FGFR2 IC50, BGJ398-VHL based degraders
Let's look at some molecules and their measured IC50.
State the answer as a number, implicitly in nM.

Molecule: COc1cc(OC)c(Cl)c(NC(=O)N(C)c2cc(Nc3ccc(N4CCN(CCCCCC(=O)N[C@H](C(=O)N5C[C@H](O)C[C@H]5C(=O)N[C@@H](C)c5ccc(-c6scnc6C)cc5)C(C)(C)C)CC4)cc3)ncn2)c1Cl [NJH-05-123]
Endpoint Unit: nM
IC50: 16

Measured IC50, COc1cc(OC)c(Cl)c(NC(=O)N(C)c2cc(Nc3ccc(N4CCN(CC(=O)N[C@H](C(=O)N5C[C@H](O)C[C@H]5C(=O)N[C@@H](C)c5ccc(-c6scnc6C)cc5)C(C)(C)C)CC4)cc3)ncn2)c1Cl [DGY-09-192] : 34

---

Let's look at some molecules and their measured pIC50.
- Assayed System: FGFR2 (Homo sapiens)
- Assay Notes: Z'-LYTE kinase assay
- Type: biochemical
- Assay Setup: read-out: FGFR2 IC50, BGJ398-VHL based degraders
// pIC50 is dimensionless: -log10 of concentration (M)

Measured pIC50, "COc1cc(OC)c(Cl)c(NC(=O)N(C)c2cc(Nc3ccc(N4CCN(CCC(=O)N[C@H](C(=O)N5C[C@H](O)C[C@H]5C(=O)N[C@@H](C)c5ccc(-c6scnc6C)cc5)C(C)(C)C)CC4)cc3)ncn2)c1Cl" : 7.52

Measured pIC50, "COc1cc(OC)c(Cl)c(NC(=O)N(C)c2cc(Nc3ccc(N4CCN(CC(=O)NCCCCCOc5cc(-c6scnc6C)ccc5[C@H](C)NC(=O)[C@@H]5C[C@@H](O)CN5C(=O)[C@@H](NC(C)=O)C(C)(C)C)CC4)cc3)ncn2)c1Cl" : 7.23

Measured pIC50, "COc1cc(OC)c(Cl)c(NC(=O)N(C)c2cc(Nc3ccc(N4CCN(CCCC(=O)N[C@H](C(=O)N5C[C@H](O)C[C@H]5C(=O)N[C@@H](C)c5ccc(-c6scnc6C)cc5)C(C)(C)C)CC4)cc3)ncn2)c1Cl" : 8.00

Measured pIC50, "COc1cc(OC)c(Cl)c(NC(=O)N(C)c2cc(Nc3ccc(N4CCN(CC(=O)NCCC(=O)N[C@H](C(=O)N5C[C@H](O)C[C@H]5C(=O)N[C@@H](C)c5ccc(-c6scnc6C)cc5)C(C)(C)C)CC4)cc3)ncn2)c1Cl" : 7.52

Measured pIC50, COc1cc(OC)c(Cl)c(NC(=O)N(C)c2cc(Nc3ccc(N4CCN(CC(=O)NCCCCCSC(C)(C)C(NC(C)=O)C(=O)N5CC(O)CC5C(=O)NC(C)c5ccc(-c6scnc6C)cc5)CC4)cc3)ncn2)c1Cl (stereo not drawn) : 7.37

Measured pIC50, COc1cc(OC)c(Cl)c(NC(=O)N(C)c2cc(Nc3ccc(N4CCN(C(=O)NCCOCCC(=O)NC(C(=O)N5CC(O)CC5C(=O)NC(C)c5ccc(-c6scnc6C)cc5)C(C)(C)C)CC4)cc3)ncn2)c1Cl (stereo not drawn) : 7.48

---

- Assayed System: FGFR2 (Homo sapiens, UniProt P21802)
- Assay Notes: Z'-LYTE kinase assay
- Type: biochemical
- Assay Setup: read-out: FGFR2 IC50, BGJ398-IMiDs based degraders
Measured Attribute: pIC50
// pIC50 is dimensionless: -log10 of concentration (M)

Measured pIC50, COc1cc(OC)c(Cl)c(NC(=O)N(C)c2cc(Nc3ccc(N4CCN(CC(=O)NCCCCCOc5cccc6c5C(=O)N(C5CCC(=O)NC5=O)C6=O)CC4)cc3)ncn2)c1Cl (stereo not shown) : 7.48

---

- Assay Notes: Pharmacokinetics study in mice
- Type: in vivo
- Assay Setup: ip 3 mg/kg
Measured Attribute: Cmax (nM)
State the answer as a number, implicitly in nM.

Measured Cmax, COc1cc(OC)c(Cl)c(NC(=O)N(C)c2cc(Nc3ccc(N4CCN(CC(=O)N[C@H](C(=O)N5C[C@H](O)C[C@H]5C(=O)N[C@@H](C)c5ccc(-c6scnc6C)cc5)C(C)(C)C)CC4)cc3)ncn2)c1Cl [DGY-09-192] : 1490

Every entry's value here was drawn from paper PMC8324087.
